Test system: 885724-159-R-J1-PDC complex spheroid viability
Test: Anticancer human tumor 885724-159-R-J1-PDC patient-derived pancreatic adenocarcinoma cell line growth inhibition [GQUAD]
Conditions: second compound 0.0316 µM; first compound 3.16 µM; stronger effect = lower value

>  <Molecule>
CC(C)(O)C1CCC(Nc2ccc3ncc(-c4cccc(C(F)(F)F)c4)n3n2)CC1 (stereo not drawn) + CN(C)c1ccc(Nc2c3ccc(NC(=O)CCN4CCCC4)cc3nc3cc(NC(=O)CCN4CCCC4)ccc23)cc1

>  <viability, T/C, %>
42.1

$$$$
>  <Molecule>
Nc1ccn(C2OC(CO)C(O)C2(F)F)c(=O)n1 (stereo not drawn) + CN(C)c1ccc(Nc2c3ccc(NC(=O)CCN4CCCC4)cc3nc3cc(NC(=O)CCN4CCCC4)ccc23)cc1

>  <viability, T/C, %>
63.8

$$$$
>  <Molecule>
CC1COCCN1c1cc(C2(S(C)(=N)=O)CC2)nc(-c2ccnc3[nH]ccc23)n1 (stereo not drawn) + CN(C)c1ccc(Nc2c3ccc(NC(=O)CCN4CCCC4)cc3nc3cc(NC(=O)CCN4CCCC4)ccc23)cc1

>  <viability, T/C, %>
69.1

$$$$

* * *

System: 885724-159-R-J1-PDC complex spheroid viability
Assay: Anticancer human tumor 885724-159-R-J1-PDC cell line growth inhibition [GQUAD];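 note: spheroids exposed to agents for seven days before readout; percent of vehicle control viability where 100% = DMSO wells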
Conditions: second compound 10 µM; first compound 3.16 µM; stronger effect = lower value

>  <Molecule>
C#Cc1c(F)ccc2cc(O)cc(-c3ncc4c(N5CC6CCC(C5)N6)nc(OCC56CCCN5CC(F)C6)nc4c3F)c12 (stereo unspecified) + Cc1cnc(CNC(=O)c2c(=O)c3ccc(N4CCCN(C)CC4)nc3n3c2sc2ccccc23)cn1

>  <viability, T/C, %>
36.6

$$$$
>  <Molecule>
COc1cc(C2c3cc4c(cc3C(OC3OC5COC(C)OC5C(O)C3O)C3COC(=O)C23)OCO4)cc(OC)c1O (stereo unspecified) + CN(C)c1ccc(Nc2c3ccc(NC(=O)CCN4CCCC4)cc3nc3cc(NC(=O)CCN4CCCC4)ccc23)cc1

>  <viability, T/C, %>
71.4

$$$$
>  <Molecule>
COc1cc(C2c3cc4c(cc3C(OC3OC5COC(C)OC5C(O)C3O)C3COC(=O)C23)OCO4)cc(OC)c1O (stereo unspecified) + Cc1[nH]c2ccc(F)cc2c1-c1nc2c3cccnc3c3ncccc3c2[nH]1

>  <viability, T/C, %>
70.6

$$$$
>  <Molecule>
CCCS(=O)(=O)Nc1ccc(F)c(C(=O)c2c[nH]c3ncc(-c4ccc(Cl)cc4)cc23)c1F + Cc1[nH]c2ccc(F)cc2c1-c1nc2c3cccnc3c3ncccc3c2[nH]1

>  <viability, T/C, %>
110

$$$$
>  <Molecule>
CC1COCCN1c1cc(C2(S(C)(=N)=O)CC2)nc(-c2ccnc3[nH]ccc23)n1 (stereo unspecified) + CN(C)c1ccc(Nc2c3ccc(NC(=O)CCN4CCCC4)cc3nc3cc(NC(=O)CCN4CCCC4)ccc23)cc1

>  <viability, T/C, %>
71.9

$$$$
>  <Molecule>
COc1ncnc(C2CC2)c1-c1ncc2cnn(Cc3ccc(-c4nc(C(F)(F)F)cn4C(C)C)cc3)c2n1 + Cc1[nH]c2ccc(F)cc2c1-c1nc2c3cccnc3c3ncccc3c2[nH]1

>  <viability, T/C, %>
69.3

$$$$
>  <Molecule>
Nc1ccn(C2OC(CO)C(O)C2(F)F)c(=O)n1 (stereo unspecified) + Cc1cnc(CNC(=O)c2c(=O)c3ccc(N4CCCN(C)CC4)nc3n3c2sc2ccccc23)cn1

>  <viability, T/C, %>
70.9

$$$$
>  <Molecule>
CCCS(=O)(=O)Nc1ccc(F)c(C(=O)c2c[nH]c3ncc(-c4ccc(Cl)cc4)cc23)c1F + Cc1cnc(CNC(=O)c2c(=O)c3ccc(N4CCCN(C)CC4)nc3n3c2sc2ccccc23)cn1

>  <viability, T/C, %>
76

$$$$
>  <Molecule>
CC(C)n1c(=O)n(C)c2cnc3cc(F)c(-c4ccc(OCCCN5CCCCC5)nc4)cc3c21 + Cc1[nH]c2ccc(F)cc2c1-c1nc2c3cccnc3c3ncccc3c2[nH]1

>  <viability, T/C, %>
72.4

$$$$
>  <Molecule>
CC(C)n1c(=O)n(C)c2cnc3cc(F)c(-c4ccc(OCCCN5CCCCC5)nc4)cc3c21 + CN(C)c1ccc(Nc2c3ccc(NC(=O)CCN4CCCC4)cc3nc3cc(NC(=O)CCN4CCCC4)ccc23)cc1

>  <viability, T/C, %>
33.3

$$$$
>  <Molecule>
O=c1[nH]cc(F)c(=O)[nH]1 + Cc1[nH]c2ccc(F)cc2c1-c1nc2c3cccnc3c3ncccc3c2[nH]1

>  <viability, T/C, %>
81.3

$$$$

* * *

System: 885724-159-R-J1-PDC complex spheroid viability
Experiment: Anticancer human tumor 885724-159-R-J1-PDC cell line growth inhibition [GQUAD];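 note: spheroids exposed to agents for seven days before readout; percent of vehicle control viability where 100% = DMSO wells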
Details: second compound 0.0316 µM; first compound 1 µM; stronger effect = lower value
So basically: is viability, T/C under 90%? Then True. Not under? Then False.

>  <Molecule>
COc1cccc2c1C(=O)c1c(O)c3c(c(O)c1C2=O)CC(O)(C(=O)CO)CC3OC1CC(N)C(O)C(C)O1 (stereo not given) + CN(C)c1ccc(Nc2c3ccc(NC(=O)CCN4CCCC4)cc3nc3cc(NC(=O)CCN4CCCC4)ccc23)cc1

>  <Assigned Category>
True

$$$$
>  <Molecule>
Cc1cccc(N(C)C(=O)C2C(O)CCN2c2nc(C)cc(C(F)(F)F)c2C#N)c1 (stereo not given) + CN(C)c1ccc(Nc2c3ccc(NC(=O)CCN4CCCC4)cc3nc3cc(NC(=O)CCN4CCCC4)ccc23)cc1

>  <Assigned Category>
False

$$$$
>  <Molecule>
C=CC(=O)N1CCN(c2nc(=O)n(-c3c(C)ccnc3C(C)C)c3nc(-c4c(O)cccc4F)c(F)cc23)C(C)C1 (stereo not given) + Cc1cnc(CNC(=O)c2c(=O)c3ccc(N4CCCN(C)CC4)nc3n3c2sc2ccccc23)cn1

>  <Assigned Category>
False

$$$$
>  <Molecule>
C=CC(=O)N1CCN(c2nc(=O)n(-c3c(C)ccnc3C(C)C)c3nc(-c4c(O)cccc4F)c(F)cc23)C(C)C1 (stereo not given) + Cc1[nH]c2ccc(F)cc2c1-c1nc2c3cccnc3c3ncccc3c2[nH]1

>  <Assigned Category>
False

$$$$
>  <Molecule>
C#Cc1c(F)ccc2cc(O)cc(-c3ncc4c(N5CC6CCC(C5)N6)nc(OCC56CCCN5CC(F)C6)nc4c3F)c12 (stereo not given) + CN(C)c1ccc(Nc2c3ccc(NC(=O)CCN4CCCC4)cc3nc3cc(NC(=O)CCN4CCCC4)ccc23)cc1

>  <Assigned Category>
True

$$$$
>  <Molecule>
COc1cc(C2c3cc4c(cc3C(OC3OC5COC(C)OC5C(O)C3O)C3COC(=O)C23)OCO4)cc(OC)c1O (stereo not given) + Cc1[nH]c2ccc(F)cc2c1-c1nc2c3cccnc3c3ncccc3c2[nH]1

>  <Assigned Category>
False

$$$$
>  <Molecule>
O=C(NO)c1cnc(N2CCN(S(=O)(=O)c3ccc4ccccc4c3)CC2)nc1 + CN(C)c1ccc(Nc2c3ccc(NC(=O)CCN4CCCC4)cc3nc3cc(NC(=O)CCN4CCCC4)ccc23)cc1

>  <Assigned Category>
True

$$$$
>  <Molecule>
COc1ncnc(C2CC2)c1-c1ncc2cnn(Cc3ccc(-c4nc(C(F)(F)F)cn4C(C)C)cc3)c2n1 + CN(C)c1ccc(Nc2c3ccc(NC(=O)CCN4CCCC4)cc3nc3cc(NC(=O)CCN4CCCC4)ccc23)cc1

>  <Assigned Category>
True

$$$$
>  <Molecule>
CC(C)(O)C1CCC(Nc2ccc3ncc(-c4cccc(C(F)(F)F)c4)n3n2)CC1 (stereo not given) + CN(C)c1ccc(Nc2c3ccc(NC(=O)CCN4CCCC4)cc3nc3cc(NC(=O)CCN4CCCC4)ccc23)cc1

>  <Assigned Category>
True

$$$$
>  <Molecule>
COc1cccc2c1C(=O)c1c(O)c3c(c(O)c1C2=O)CC(O)(C(=O)CO)CC3OC1CC(N)C(O)C(C)O1 (stereo not given) + Cc1cnc(CNC(=O)c2c(=O)c3ccc(N4CCCN(C)CC4)nc3n3c2sc2ccccc23)cn1

>  <Assigned Category>
True

$$$$

* * *

Tested on: 885724-159-R-J1-PDC complex spheroid viability
Test: Anticancer human tumor 885724-159-R-J1-PDC cell line growth inhibition [GQUAD]; active = viability on the fitted dose curve at most 10% of control; inactive = the rest;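 note: spheroids exposed to agents for seven days before readout; percent of vehicle control viability where 100% = DMSO wells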
Conditions: second compound 3.16 µM; first compound 3.16 µM
Classes used: active, inactive

>  <Compound>
COc1cccc2c1C(=O)c1c(O)c3c(c(O)c1C2=O)CC(O)(C(=O)CO)CC3OC1CC(N)C(O)C(C)O1 (stereo not drawn) + CN(C)c1ccc(Nc2c3ccc(NC(=O)CCN4CCCC4)cc3nc3cc(NC(=O)CCN4CCCC4)ccc23)cc1

>  <Assigned Category>
inactive

$$$$
>  <Compound>
COc1cc(C2c3cc4c(cc3C(OC3OC5COC(C)OC5C(O)C3O)C3COC(=O)C23)OCO4)cc(OC)c1O (stereo not drawn) + CN(C)c1ccc(Nc2c3ccc(NC(=O)CCN4CCCC4)cc3nc3cc(NC(=O)CCN4CCCC4)ccc23)cc1

>  <Assigned Category>
inactive

$$$$
>  <Compound>
C#Cc1c(F)ccc2cc(O)cc(-c3ncc4c(N5CC6CCC(C5)N6)nc(OCC56CCCN5CC(F)C6)nc4c3F)c12 (stereo not drawn) + Cc1[nH]c2ccc(F)cc2c1-c1nc2c3cccnc3c3ncccc3c2[nH]1

>  <Assigned Category>
active

$$$$
